# test-target: Histamine H3 receptor (Homo sapiens, UniProt Q9Y5N1); further: assay procedure not described here
# Sequence (Q9Y5N1 whole entry): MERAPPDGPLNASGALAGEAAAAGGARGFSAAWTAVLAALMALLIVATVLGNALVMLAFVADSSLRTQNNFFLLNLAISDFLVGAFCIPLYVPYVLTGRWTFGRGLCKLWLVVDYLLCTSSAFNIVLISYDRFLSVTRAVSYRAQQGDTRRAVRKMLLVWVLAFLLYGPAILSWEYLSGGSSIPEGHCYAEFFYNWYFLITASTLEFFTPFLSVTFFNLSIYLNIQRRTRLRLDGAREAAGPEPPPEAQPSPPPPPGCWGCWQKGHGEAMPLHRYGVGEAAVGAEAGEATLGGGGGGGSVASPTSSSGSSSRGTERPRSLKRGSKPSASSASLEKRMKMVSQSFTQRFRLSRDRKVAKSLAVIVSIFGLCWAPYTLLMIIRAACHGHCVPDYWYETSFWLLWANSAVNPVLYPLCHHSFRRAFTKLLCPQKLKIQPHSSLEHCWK
readout-kind: AC50

Illustrative cases are given below, each with its answer.
O=C1OC(OC(=O)c2cccnc2Nc2cccc(C(F)(F)F)c2)c2ccccc21 (centres undefined) [TALNIFLUMATE] = > 30 µM
CN[C@@H](C)[C@@H](O)c1ccccc1 [PSEUDOEPHEDRINE] = > 10 µM
CCOC(=O)C(C)(C)Oc1ccc(Cl)cc1 [CLOFIBRATE] = > 10 µM
CC(O)(CS(=O)(=O)c1ccc(F)cc1)C(=O)Nc1ccc(C#N)c(C(F)(F)F)c1 (centres undefined) [BICALUTAMIDE] = > 30 µM
CN[C@]1(c2ccccc2Cl)CCCCC1=O [ESKETAMINE] = > 30 µM

For each listed entry, give its AC50.
1. O=c1[nH]c2ccccc2n1CCCN1CCN(C(c2ccccc2)c2ccccc2)CC1 [OXATOMIDE]
2. CCC1(c2ccc(N)cc2)CCC(=O)NC1=O (centres undefined) [AMINOGLUTETHIMIDE]

Given back:
["> 30 µM", "> 30 µM"]

----------
# test-target: D(1A) dopamine receptor (Homo sapiens); further: assay procedure not described here
# Sequence (P21728 whole entry): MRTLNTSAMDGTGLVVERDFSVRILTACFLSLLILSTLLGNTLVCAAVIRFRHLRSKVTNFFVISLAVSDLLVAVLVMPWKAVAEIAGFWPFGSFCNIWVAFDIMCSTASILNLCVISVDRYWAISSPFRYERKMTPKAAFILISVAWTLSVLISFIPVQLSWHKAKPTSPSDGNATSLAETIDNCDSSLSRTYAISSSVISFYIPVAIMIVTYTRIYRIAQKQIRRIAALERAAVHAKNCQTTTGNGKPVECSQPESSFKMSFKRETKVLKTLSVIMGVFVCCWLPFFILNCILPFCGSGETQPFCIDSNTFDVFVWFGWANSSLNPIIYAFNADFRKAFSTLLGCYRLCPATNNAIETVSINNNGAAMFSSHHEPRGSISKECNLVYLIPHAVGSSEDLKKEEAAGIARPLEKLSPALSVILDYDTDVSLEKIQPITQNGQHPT
# Type: functional, cell-based
I'd appreciate it if you could supply AC50 values for the items below.

CC(C)c1cccc(C(C)C)c1O = > 30 µM
O=C(O)Cc1ccccc1Oc1ccc(Cl)cc1Cl = > 30 µM
C=CC[N+]1([C@H]2C[C@H]3[C@@H]4CC[C@H]5C[C@H](O)[C@@H](N6CCOCC6)C[C@]5(C)[C@H]4CC[C@]3(C)[C@H]2OC(C)=O)CCCC1 = > 30 µM

Asked: // lookup AC50 for CCC[C@@H]1C[C@@H](C(=O)N[C@@H]([C@H]2O[C@H](SC)[C@H](O)[C@@H](O)[C@H]2O)[C@@H](C)O)N(C)C1
Given back: > 10 µM

----------
I'd appreciate it if you could supply AC50 values for the items below.
# test-target: UniProt:P08172
# Sequence (P08172 whole entry): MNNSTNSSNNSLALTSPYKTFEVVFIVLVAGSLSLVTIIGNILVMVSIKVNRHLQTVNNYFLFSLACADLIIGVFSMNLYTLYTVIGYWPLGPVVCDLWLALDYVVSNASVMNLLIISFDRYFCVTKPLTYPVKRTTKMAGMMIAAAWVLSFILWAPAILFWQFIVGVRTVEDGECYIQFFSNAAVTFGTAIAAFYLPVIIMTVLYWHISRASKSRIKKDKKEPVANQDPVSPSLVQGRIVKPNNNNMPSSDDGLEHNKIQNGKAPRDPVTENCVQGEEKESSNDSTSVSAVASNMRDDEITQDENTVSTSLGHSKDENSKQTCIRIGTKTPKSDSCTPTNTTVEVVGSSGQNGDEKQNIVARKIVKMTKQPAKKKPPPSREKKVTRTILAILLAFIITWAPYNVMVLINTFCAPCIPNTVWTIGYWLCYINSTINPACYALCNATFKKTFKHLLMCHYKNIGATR
# Format: functional, cell-based

Illustrative cases are given below, each with its answer.
CC1=C(/C=C/C(C)=C/C=C/C(C)=C/CO)C(C)(C)CCC1 = > 10 µM
NC[C@H]1CC[C@H](C(=O)Oc2ccc(CCC(=O)O)cc2)CC1 [CETRAXATE] = > 30 µM
NC(=O)NC(=O)Cc1ccccc1 [PHENACEMIDE] = > 10 µM
C[N+](C)(C)CCOP(=O)([O-])OC[C@H](O)CO = > 30 µM
OC[C@H]1O[C@@H](n2cnc3c2NC=NC[C@H]3O)C[C@@H]1O = > 30 µM
O=C(O)Cc1ccccc1Nc1c(Cl)cccc1Cl = > 10 µM
CN1CCN=C(c2ccccc2)c2cc(Cl)ccc21 = > 30 µM
O=C(O)Cc1ccccc1Oc1ccc(Cl)cc1Cl = > 10 µM

For each listed entry, give its AC50.
1. CC(=O)Nc1ccc(CC(=O)O)cc1
2. c1ccc(C2(N3CCCCC3)CCCCC2)cc1
3. CNC[C@H](O)c1ccc(O)c(O)c1 [EPINEPHRINE]
4. O=c1c(O)c(-c2ccc(O)c(O)c2)oc2cc(O)cc(O)c12

Given back:
["> 30 µM", "> 30 µM", "> 30 µM", "> 10 µM"]

----------
I'd appreciate it if you could supply AC50 values for the items below.
# test-target: Alpha-2C adrenergic receptor (Homo sapiens); further: assay procedure not described here
# Sequence (P18825 whole entry): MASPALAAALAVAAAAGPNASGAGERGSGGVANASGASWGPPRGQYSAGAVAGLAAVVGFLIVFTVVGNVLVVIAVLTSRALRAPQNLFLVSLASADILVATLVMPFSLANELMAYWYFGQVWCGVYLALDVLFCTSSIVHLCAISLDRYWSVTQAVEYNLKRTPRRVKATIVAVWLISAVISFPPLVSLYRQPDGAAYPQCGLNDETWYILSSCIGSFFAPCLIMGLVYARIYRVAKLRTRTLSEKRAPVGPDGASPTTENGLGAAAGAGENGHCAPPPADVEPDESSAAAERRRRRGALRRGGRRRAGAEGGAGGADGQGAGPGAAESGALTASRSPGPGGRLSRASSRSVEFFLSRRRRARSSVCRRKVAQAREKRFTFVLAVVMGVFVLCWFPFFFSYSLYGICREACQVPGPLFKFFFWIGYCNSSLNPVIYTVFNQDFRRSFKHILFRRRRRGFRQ
# Assay type: functional

CC(C)NC[C@H](O)COc1ccc(CC(N)=O)cc1 [ESATENOLOL] = > 10 µM

For each listed entry, give its AC50.
1. CC(C)(C)NCC(O)c1ccccc1Cl (centres undefined) [TULOBUTEROL]
2. Fc1ccc([C@@H]2CCNC[C@H]2COc2ccc3c(c2)OCO3)cc1 [PAROXETINE]
3. Cc1ccc(C)c(OCCCC(C)(C)C(=O)O)c1 [GEMFIBROZIL]
4. O=C(/C=C/c1cccc(S(=O)(=O)Nc2ccccc2)c1)NO [BELINOSTAT]
5. CC1=C(/C=C/C(C)=C/C=C/C(C)=C/CO)C(C)(C)CCC1 [RETINOL]
6. CCOc1cc([C@@H](CS(C)(=O)=O)N2C(=O)c3cccc(NC(C)=O)c3C2=O)ccc1OC

Given back:
1: > 30 µM; 2: 7.8 µM; 3: > 10 µM; 4: > 10 µM; 5: > 10 µM; 6: > 30 µM

For each listed entry, give its AC50.
1. CN(Cc1cnc2nc(N)nc(N)c2n1)c1ccc(C(=O)N[C@@H](CCC(=O)O)C(=O)O)cc1 [METHOTREXATE]
2. CCN1CCCC1CNC(=O)c1cc(S(=O)(=O)CC)ccc1OC (centres undefined) [SULTOPRIDE]

Given back:
1: > 10 µM; 2: 4.5 µM

----------
I'd appreciate it if you could supply AC50 values for the items below.
# test-target: UniProt:P41968
# Sequence (P41968 whole entry): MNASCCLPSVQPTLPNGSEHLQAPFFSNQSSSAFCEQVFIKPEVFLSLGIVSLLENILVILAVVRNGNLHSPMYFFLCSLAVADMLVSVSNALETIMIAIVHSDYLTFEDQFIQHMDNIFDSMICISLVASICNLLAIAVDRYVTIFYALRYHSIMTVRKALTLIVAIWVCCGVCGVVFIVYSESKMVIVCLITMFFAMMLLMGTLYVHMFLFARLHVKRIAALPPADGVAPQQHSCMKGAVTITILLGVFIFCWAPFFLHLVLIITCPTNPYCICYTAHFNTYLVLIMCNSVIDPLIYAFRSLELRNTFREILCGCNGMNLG

CN[C@@H](C)[C@@H](O)c1ccccc1 [PSEUDOEPHEDRINE] = > 30 µM
CC(Cc1cccc(C(F)(F)F)c1)NCCOC(=O)c1ccccc1 (configuration not stated) [BENFLUOREX] = > 30 µM
C/C=C(/C(=C/C)c1ccc(O)cc1)c1ccc(O)cc1 [DIENESTROL] = > 10 µM
CC(C)N(CCCCOCC(=O)O)c1cnc(-c2ccccc2)c(-c2ccccc2)n1 = > 30 µM
CCC(=O)O[C@](Cc1ccccc1)(c1ccccc1)[C@H](C)CN(C)C [PROPOXYPHENE] = > 30 µM
Cc1cc(C)nc(NS(=O)(=O)c2ccc(N)cc2)n1 [SULFAMETHAZINE] = > 10 µM

Then there is this molecule:
Asked: // lookup AC50 for O=c1[nH]c2ccccc2n1CCCN1CCN(C(c2ccccc2)c2ccccc2)CC1 [OXATOMIDE]
Given back: > 30 µM

----------
# test-target: Sodium-dependent dopamine transporter (Homo sapiens, UniProt Q01959); further: assay procedure not described here
# Sequence (Q01959 whole entry): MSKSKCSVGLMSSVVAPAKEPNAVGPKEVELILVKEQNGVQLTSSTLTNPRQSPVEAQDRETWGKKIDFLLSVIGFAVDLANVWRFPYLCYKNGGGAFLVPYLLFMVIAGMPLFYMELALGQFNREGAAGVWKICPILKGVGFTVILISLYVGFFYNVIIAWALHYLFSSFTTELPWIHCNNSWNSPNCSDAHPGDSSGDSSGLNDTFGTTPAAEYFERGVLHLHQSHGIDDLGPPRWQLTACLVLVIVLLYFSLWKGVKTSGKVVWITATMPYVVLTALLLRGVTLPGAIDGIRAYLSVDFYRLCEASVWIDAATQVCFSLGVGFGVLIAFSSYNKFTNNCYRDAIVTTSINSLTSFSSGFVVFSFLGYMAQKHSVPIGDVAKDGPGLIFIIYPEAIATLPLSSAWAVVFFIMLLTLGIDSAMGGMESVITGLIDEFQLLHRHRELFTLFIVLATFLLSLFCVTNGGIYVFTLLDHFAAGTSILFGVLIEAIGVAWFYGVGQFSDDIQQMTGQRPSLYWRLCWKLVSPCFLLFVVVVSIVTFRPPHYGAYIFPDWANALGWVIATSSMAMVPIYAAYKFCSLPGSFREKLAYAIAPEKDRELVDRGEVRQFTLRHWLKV
readout-kind: AC50

Illustrative cases are given below, each with its answer.
CC(=O)O[C@]1(C(C)=O)CC[C@H]2[C@@H]3C=C(Cl)C4=CC(=O)[C@@H]5C[C@@H]5[C@]4(C)[C@H]3CC[C@@]21C [CYPROTERONE ACETATE] = > 30 µM
CCOC(=O)c1c(CSc2ccccc2)n(C)c2cc(Br)c(O)c(CN(C)C)c12 = 9.1 µM
OC[C@H]1O[C@@H](Oc2cc(O)cc(/C=C/c3ccc(O)cc3)c2)[C@H](O)[C@@H](O)[C@@H]1O = > 30 µM

Then there is this molecule:
Asked: // lookup AC50 for COc1cc(C)c(/C=C/C(C)=C/C=C/C(C)=C/C(=O)O)c(C)c1C
Given back: > 10 µM

----------
So I've got AC50 readings for Alpha-1A adrenergic receptor (Homo sapiens, UniProt P35348), take a look.

COc1cc(C(C)=O)ccc1OCCCN1CCC(c2noc3cc(F)ccc23)CC1 [ILOPERIDONE] = 0.0018 µM
O=C(O)COCCN1CCN(C(c2ccccc2)c2ccc(Cl)cc2)CC1 (stereo not given) [CETIRIZINE] = > 10 µM
CN(CCOc1ccc(CC2SC(=O)NC2=O)cc1)c1ccccn1 (stereo not given) [ROSIGLITAZONE] = > 10 µM
CCOc1nc2cccc(C(=O)O)c2n1Cc1ccc(-c2ccccc2-c2nnn[nH]2)cc1 = > 10 µM

For each listed entry, give its AC50.
1. CCCCOc1ccc(C(=O)CCN2CCCCC2)cc1 [DYCLONINE]
2. CCCc1nc2c(C)cc(-c3nc4ccccc4n3C)cc2n1Cc1ccc(-c2ccccc2C(=O)O)cc1
3. CN(C)CCCN1c2ccccc2CCc2ccccc21 [IMIPRAMINE]
4. O=C(O)Cc1ccccc1Nc1c(Cl)cccc1Cl [DICLOFENAC]
5. O=C1Cc2cc(CCN3CCN(c4nsc5ccccc45)CC3)c(Cl)cc2N1 [ZIPRASIDONE]
6. CCC(=O)O[C@](Cc1ccccc1)(c1ccccc1)[C@H](C)CN(C)C [PROPOXYPHENE]
7. CN[C@@H](C)[C@@H](O)c1ccccc1 [PSEUDOEPHEDRINE]

Given back:
1: > 10 µM; 2: > 10 µM; 3: 0.239 µM; 4: > 10 µM; 5: 0.0317 µM; 6: > 10 µM; 7: > 10 µM
